Assay: Mouse blood levels after single intramuscular injection
Format: in vivo, mice
Settings: 40 mg/kg im, 90 minutes, read-out: Mouse Blood Level
Property name: concentration at 1.5 h

-- ask May I ask what concentration at 1.5 h has been recorded for CSc1scc[n+]1CC1=C(C(=O)[O-])N2C(=O)C(NC(=O)/C(=N\OC(C)(C)C(=O)O)c3csc(N)n3)[C@H]2SC1 (stereo partly drawn) ?
-- reply < 3000 ng/mL

-- ask Given CO/N=C(\C(=O)NC1C(=O)N2C(C(=O)[O-])=C(C[n+]3ccsc3SC)CS[C@H]12)c1csc(N)n1 (stereo partly drawn) , state its recorded concentration at 1.5 h.
-- reply 15000 ng/mL

-- ask Please give the measured concentration at 1.5 h for this compound: CSc1scc[n+]1CC1=C(C(=O)[O-])N2C(=O)C(NC(=O)/C(=N\OC3(C(=O)O)CCC3)c3csc(N)n3)[C@H]2SC1 (stereo partly drawn)
-- reply < 1600 ng/mL

---

Assay: Mouse blood levels after single intramuscular injection
Format: in vivo, mice
Conditions: 10 mg/kg im, 30 minutes, read-out: Mouse Blood Level
Reported concentration at 0.5 h values follow for various compounds
Numbers only; they are read as ng/mL.

-- ask concentration at 0.5 h for CSc1scc[n+]1CC1=C(C(=O)[O-])N2C(=O)C(NC(=O)/C(=N\OC(C)(C)C(=O)O)c3csc(N)n3)[C@H]2SC1 (stereo partly drawn) ?
-- reply 4700

-- ask Any idea what its concentration at 0.5 h is? The compound is CSc1scc[n+]1CC1=C(C(=O)[O-])N2C(=O)C(NC(=O)/C(=N\OC3(C(=O)O)CCC3)c3csc(N)n3)[C@H]2SC1 (stereo partly drawn)
-- reply 3700

-- ask Report concentration at 0.5 h for CO/N=C(\C(=O)NC1C(=O)N2C(C(=O)[O-])=C(C[n+]3ccsc3SC)CS[C@H]12)c1csc(N)n1 (stereo partly drawn) please.
-- reply 12000

---

Assay: Mouse blood levels after single intramuscular injection
Format: in vivo, mice
Details: 20 mg/kg im, 20 minutes, read-out: Mouse Blood Level
Recorded concentration at 20 min values for a group of compounds are listed next.
The reply should be a number in ng/mL, with the unit left off.

1) CO/N=C(\C(=O)NC1C(=O)N2C(C(=O)[O-])=C(C[n+]3ccsc3SC)CS[C@H]12)c1csc(N)n1 (stereo partly drawn) [Example 3] | 22000
2) CSc1scc[n+]1CC1=C(C(=O)[O-])N2C(=O)C(NC(=O)/C(=N\OC(C)(C)C(=O)O)c3csc(N)n3)[C@H]2SC1 (stereo partly drawn) [Example 1] | 24000

Shifting focus to the compound that follows.
-- ask Entry CSc1scc[n+]1CC1=C(C(=O)[O-])N2C(=O)C(NC(=O)/C(=N\OC3(C(=O)O)CCC3)c3csc(N)n3)[C@H]2SC1 (stereo partly drawn) [Example 2] has what concentration at 20 min?
-- reply 15000

---

Below is a list of entries, each paired with its recorded MIC value.
System: Penicillinsensitive S. aureus
Assay: MIC, two-fold serial agar dilution in Mueller-Hinton agar, group (G+)-Ia
Type: cell-based
Settings: Staphylococcus aureus; (G+)-Ia, penicillin-sensitive S. aureus (5 strains); read-out: Geometric Mean of MIC
Protocol: In the primary evaluation of the compounds of this invention, the Minimum Inhibitory Concentrations (MIC's) of the compounds were determined by the two-fold serial agar dilution method in Mueller-Hinton agar against 32 strains of test organisms in six groups.
State the value with its unit after it.

1. CC(C)(O/N=C(\C(=O)NC1C(=O)N2C(C(=O)[O-])=C(C[n+]3ccsc3SCC(=O)O)CS[C@H]12)c1csc(N)n1)C(=O)O (stereo partly drawn) | 25 µg/mL
2. CSc1scc(C)[n+]1CC1=C(C(=O)[O-])N2C(=O)C(NC(=O)/C(=N\OC(C)(C)C(=O)O)c3csc(N)n3)[C@H]2SC1 (stereo partly drawn) | 4.2 µg/mL

Consider the additional molecule presented here.
-- ask Return MIC measured with Penicillinsensitive S. aureus given this molecule: CO/N=C(\C(=O)NC1C(=O)N2C(C(=O)[O-])=C(C[n+]3csc(CCN)c3C)CSC12)c1csc(N)n1 (stereo not drawn)
-- reply 2.1 µg/mL
